- Study target: Myeloperoxidase (Homo sapiens) (UniProt P05164)
- Sequence (P05164 165-273 limits assumed): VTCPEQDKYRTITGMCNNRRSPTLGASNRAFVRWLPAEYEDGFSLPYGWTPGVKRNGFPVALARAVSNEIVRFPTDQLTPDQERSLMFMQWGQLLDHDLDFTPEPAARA
- Sequence (P05164 279-745 limits assumed): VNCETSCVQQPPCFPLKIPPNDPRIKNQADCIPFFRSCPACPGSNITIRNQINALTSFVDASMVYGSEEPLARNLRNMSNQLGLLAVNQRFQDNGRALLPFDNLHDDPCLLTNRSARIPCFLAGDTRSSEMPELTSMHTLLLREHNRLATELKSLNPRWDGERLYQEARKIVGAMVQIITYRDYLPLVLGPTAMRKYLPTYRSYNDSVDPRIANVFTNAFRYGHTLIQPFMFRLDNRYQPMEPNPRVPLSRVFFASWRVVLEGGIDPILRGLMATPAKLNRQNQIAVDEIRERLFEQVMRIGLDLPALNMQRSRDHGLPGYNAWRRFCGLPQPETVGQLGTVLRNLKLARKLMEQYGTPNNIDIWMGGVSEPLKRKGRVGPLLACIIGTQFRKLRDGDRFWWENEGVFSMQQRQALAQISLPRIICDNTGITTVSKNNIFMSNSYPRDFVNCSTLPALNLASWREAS
- Protocol summary: Inhibition of human MPO using taurine as substrate assessed as reduction in substrate chlorination at 20 uM incubated for 30 mins by taurine-chloramine assay relative to control
For each entry below, report its inhibition value.
Give bare numbers, in %.

Below: 5 compounds and their reported inhibition.
> print(dat)
                                     smiles                              study.target  unit.info  recorded.number
1  O=C(Cn1c(=S)[nH]c2ccccc21)Nc1ccc([N+](=O)[O-])cc1  Myeloperoxidase (Homo sapiens) (UniProt P05164)          %             61.4
2       Cc1cccc(NC(=O)Cn2c(Cl)nc3ccccc32)c1  Myeloperoxidase (Homo sapiens) (UniProt P05164)          %             34.8
3  O=C(CSc1nc2ccccc2[nH]1)Nc1ccccc1[N+](=O)[O-]  Myeloperoxidase (Homo sapiens) (UniProt P05164)          %             48.5
4         O=C(CSc1nc2ccccc2[nH]1)NCc1ccccc1  Myeloperoxidase (Homo sapiens) (UniProt P05164)          %             63.6
5       Cc1ccc(NC(=O)CSc2nc3ccccc3[nH]2)cc1  Myeloperoxidase (Homo sapiens) (UniProt P05164)          %               73

Count: 2. Required value per item: inhibition.
1. O=C(Cn1c(=S)[nH]c2ccccc21)Nc1ccccc1[N+](=O)[O-]
2. COc1cc(NC(=O)Cn2c(=S)[nH]c3ccccc32)cc(OC)c1OC

Result ::
70.2
62.6

For each of the items listed, what is its inhibition?
1. O=C(Cn1c(=S)[nH]c2ccccc21)Nc1ccc(Cl)cc1
2. COc1ccc(NC(=O)Cn2c(Cl)nc3ccccc32)cc1
3. O=C(Cn1c(=S)[nH]c2ccccc21)N1CCOCC1
4. O=C(CSc1nc2ccccc2[nH]1)Nc1ccccc1Cl

Result ::
[85.3, 36.9, 52.2, 54.4]

Please look at the items below and tell me inhibition for each one, in order.
1. Cc1ccccc1NC(=O)CSc1nc2ccccc2[nH]1
2. Cc1cccc(NC(=O)CSc2nc3ccccc3[nH]2)c1

Result ::
1. 44.9
2. 92.5

Please supply inhibition for each of the following items, keeping them in order.
1. O=C(Cn1c(=S)[nH]c2ccccc21)NO
2. COc1cccc(NC(=O)Cn2c(Cl)nc3ccccc32)c1
3. COc1cc(NC(=O)Cn2c(Cl)nc3ccccc32)cc(OC)c1OC
4. O=C(Cn1c(=S)[nH]c2ccccc21)N1CCCCC1
5. CCOC(=O)Cn1c(=S)[nH]c2ccccc21
6. O=C(Cn1c(=S)[nH]c2ccccc21)Nc1cccc([N+](=O)[O-])c1
7. O=C(Cn1c(Cl)nc2ccccc21)N1CCOCC1

Result ::
[51.2, 46.6, 35.7, 58.2, 51.3, 61.9, 32.7]
